Recorded binding signal by entry
tested on: VchCAST TnsB transposase (Tn6677; assayed with TnsA-TnsC and TniQ-Cascade) (Vibrio cholerae); assay: cell_activity; details: T-RL, no IPTG
Give just the number in fold vs WT; leave the unit off.

# annotated cases, reported binding signal shown
ACATTTGTTGATACAACCATAAAATGATAATTACACCCATAAATTGATAATTATCACACCCATAAATTGATATTGCCTCTGTTGGCGCCCGGCCCTCAGGCCCTGCAGTGAGTTCCAGCACCGACAC (double strand) [Right end hyperactive 2699] :: 1.77
AATGTTGTTGATGCAACCATAAAGTGATATTTACGAATCAATTAAAATCATAGGCTTAATCGAAAAACAACCATATATTGATATCTCATAAAACAACCATAAGTTGATATTTTGGTGAAAAGGATATTCCAACCTTCATAGTTTAGTAAGAA (double strand) [Left end hyperactive 4666] :: 2.58
AATGTTGTTGATGCAACCATAAAGTGATATTTAATAATTATTTATAATCAGCAACTTAACCACAAAACAACCATATATTGATATCTCACAAAACAACCATAAGTTGATATTTTTGTGAATAGGATATTCCAACCTTCATAGTTTAGTAAGAA (double strand) [Left end hyperactive 4673] :: 1.53
TTTTGTGTTGATGCAACCATAAAGTGATAACAACGAATCAATTAAAATCATAGGCTTAATCGAAAAACAACCATATCTTGATATCGCATAAAACAACCATAAGTTGATATTTTGGTGAAAAGGATATTCCAACCTTCATAGTTTAGTAAGAA (double strand) [Left end hyperactive 4671] :: 1.55
ACATTTGTTGATACAACCATAAAATGATAATTACACCCATAAATTGATAATTATCACACCCATAAATTGATATTGCCTCTGATCATAAATATATAAATTAATTATTAAATTAGTCAGGCACCGACAC (double strand) [Right end hyperactive 2692] :: 2.24

Q: Dear colleague, I am looking for the recorded binding signal of the following sequence: ACATTTGTTGATACAACCATAAAATGATAATTACACCCATAAATTGATAATTATCACACCCATAAATTGATATTGCCTCTTTATGCAGGACGACGTACGCGTTCCATATAAACCTGTGCACCGACAC (double strand) [Right end hyperactive 2696]
A: 1.83

Q: I am curious: what binding signal value has been reported for ACATTTGTTGATACAACCATAAAATGATAATTACACCCATAAATTGATAATTATCACACCCATAAATTGATATTGCCTCTCGCGAGAGGCCGGCAGCCGTCTGGCGTCGGGTGGCGGGCACCGACAC (double strand) [Right end hyperactive 2697] ?
A: 2.03

Q: For the sequence TTTTGTGTTGAAACAACCATAAAGTGATAACAACGAATCAATTAAAATCATAGGCTTAATCGAAAAACAACCATATCTTGATATCGCATAAAACAACCATAAGTTGATATTTTTGTGAATAGGATATTCCAACCTTCATAGTTTAGTAAGAA (double strand) [Left end hyperactive 4670] , what binding signal is on record?
A: 1.67

Cited source for all entries: patent US20250163410
